Exercise: state measured IC50 for each of the compounds provided.
target: Recombinant human cathepsin S (CatS) (Homo sapiens); test: Recombinant human cathepsin S (CatS) inhibition assay, fluorogenic substrate Z-Valine-Valine-Arginine-AMC; settings: CatS IC50
All answers are understood in nM, so give the number only.

What the record says about `NC(=O)N1CCc2c(c(-c3ccc(Cl)c(C#Cc4ccc(CN[C@@H]5CCCc6ccccc65)cc4)c3)nn2CCCN2CCOCC2)C1` : IC50 is 100

// IC50 lookup, compound = `CS(=O)(=O)N1CCc2c(c(-c3ccc(Cl)c(C#Cc4cccc(CNCc5ccc(Cl)cc5)c4)c3)nn2CCCN2CCN(c3ccccn3)CC2)C1` , result: 70

Record summary for `CS(=O)(=O)N1CCc2c(c(-c3ccc(Cl)c(C#Cc4ccc(CNCC(F)(F)F)cc4)c3)nn2CCCN2CCN(c3ccccc3)CC2)C1` : reported IC50 = 100

---

target: Recombinant human cathepsin S (CatS) (Homo sapiens); experiment: Recombinant human cathepsin S (CatS) inhibition assay, fluorogenic substrate Z-Valine-Valine-Arginine-AMC
pIC50: −log10 of the molar value.
Output 1 for pIC50 not less than 6; output 0 otherwise.

stdin: Could you tell me if the measured pIC50 of CS(=O)(=O)N1CCc2c(c(-c3ccc(Cl)c(C#Cc4ccc(Cl)cc4)c3)nn2CC(O)CN2CCC(C(N)=O)CC2)C1 (stereo not drawn) reaches 6 or more?
stdout: 1

stdin: # check: pIC50 of `CS(=O)(=O)N1CCc2c(c(-c3ccc(Cl)c(CCCNS(=O)(=O)c4cccc(Cl)c4)c3)nn2CCCN2CCC(N3CCCC3=O)CC2)C1` is greater than or equal to 6
stdout: 1

stdin: # check: pIC50 of `CS(=O)(=O)N1CCc2c(c(-c3ccc(Cl)c(C#Cc4ccc(CC#N)cc4)c3)nn2CCCN2CCOCC2)C1` is greater than or equal to 6
stdout: 1

stdin: Determine whether this molecule has pIC50 no lower than 6: `CS(=O)(=O)N1CCc2c(c(-c3ccc(Cl)c(CCCCNC4CCCC4)c3)nn2CCCN2CCC(N3CCCC3=O)CC2)C1`
stdout: 0

stdin: Reported pIC50 at or above 6? `CS(=O)(=O)N1CCc2c(c(-c3ccc(Cl)c(C#CCc4ccccc4)c3)nn2CCCN2CCOCC2)C1`
stdout: 0

stdin: Kindly determine if pIC50 recorded for `CC(C)(C)OC(=O)N1C[C@@H]2C[C@H]1CN2CCCn1nc(-c2ccc(Cl)c(C#Cc3ccc(CNCc4ccc(Cl)cc4)cc3)c2)c2c1CCN(S(C)(=O)=O)C2` is above or exactly 6.
stdout: 1

stdin: Check this molecule for pIC50 at or above 6: `CS(=O)(=O)N1CCc2c(c(-c3ccc(Cl)c(C#Cc4ccc(CNCc5ccc(Cl)cc5)cc4)c3)nn2CCCN2CCCCC2)C1`
stdout: 1

stdin: Please indicate if the recorded pIC50 for `C[C@H]1COCCN1CCCn1nc(-c2ccc(Cl)c(C#Cc3ccc(Cl)c(CNCCO)c3)c2)c2c1CCN(C(=O)C(N)=O)C2` meets or exceeds 6.
stdout: 1

stdin: Quick check: does CS(=O)(=O)N1CCc2c(c(-c3ccc(Cl)c(C#Cc4ccc(CNCc5ccc(Cl)cc5)cc4)c3)nn2CCCN2CCOCC2C(=O)O)C1 (stereo not drawn) have pIC50 greater than or equal to 6?
stdout: 1

stdin: Is it the case that `CN(C)C(=O)N1CCc2c(c(-c3ccc(Cl)c(C#Cc4ccc(CNCc5ccc(Cl)cc5)cc4)c3)nn2CCCN2CCOCC2)C1` has pIC50 reaching or exceeding 6?
stdout: 0

stdin: Does the reported pIC50 for `CS(=O)(=O)N1CCc2c(c(-c3ccc(Cl)c(CCCN)c3)nn2CCCN2CCC(N3CCCC3=O)CC2)C1` fall at or above the 6 mark?
stdout: 0

stdin: Say whether `CS(=O)(=O)N1CCc2c(c(-c3ccc(Cl)c(C#Cc4ccc(CCC(=O)O)cc4)c3)nn2CCCN2CCOCC2)C1` shows pIC50 of 6 or more.
stdout: 1

stdin: Assess whether reported pIC50 for CC(NCc1ccc(C#Cc2cc(-c3nn(CCCN4CCN(c5ccccc5)CC4)c4c3CN(S(C)(=O)=O)CC4)ccc2Cl)cc1)c1ccccc1 (stereo not drawn) sits at 6 or higher.
stdout: 1

stdin: Could you tell me if the measured pIC50 of CC(C)(C)OC(=O)NC1CCN(CC(O)Cn2nc(-c3ccc(Cl)c(C#Cc4ccc(Cl)cc4)c3)c3c2CCN(S(C)(=O)=O)C3)CC1 (stereo not drawn) reaches 6 or more?
stdout: 1

stdin: Hi, just wondering whether `CS(=O)(=O)N1CCc2c(c(-c3ccc(Cl)c(C#Cc4ccc(CCCC(=O)O)cc4)c3)nn2CCCN2CCOCC2)C1` shows pIC50 of 6 or higher.
stdout: 1

---

target: Recombinant human cathepsin S (CatS) (Homo sapiens); experiment: Recombinant human cathepsin S (CatS) inhibition assay, fluorogenic substrate Z-Valine-Valine-Arginine-AMC
assay.endpoint: pIC50
// pIC50 is dimensionless: -log10 of concentration (M)

Reported pIC50 ( CS(=O)(=O)N1CCc2c(c(-c3ccc(Cl)c(C#Cc4ccc(Cl)cc4)c3)nn2CC(O)CN2CCCCC2)C1 (centres unmarked) ) = 7.10

Short answer for CS(=O)(=O)N1CCc2c(c(-c3ccc(Cl)c(C#Cc4ccc5c(c4)CC(C(=O)N4CCCCC4)NC5)c3)nn2CCCN2CCOCC2)C1 (centres unmarked) : pIC50 was 6.92

The reported value for `NC(=O)N1CCc2c(c(-c3ccc(Cl)c(C#Cc4ccc(C(=O)NCc5cccnc5)cc4)c3)nn2CCCN2CCSCC2)C1` in terms of pIC50 is 7.05

get_value(item= `C[C@@H]1COCCN1CCCn1nc(-c2ccc(Cl)c(C#Cc3ccc(CNCc4ccc(Cl)cc4)cc3)c2)c2c1CCN(C(=O)C(N)=O)C2` , readout=pIC50) returns 6.82

compound `COc1ccc(C#Cc2cc(-c3nn(CCCN4CCOCC4)c4c3CN(S(C)(=O)=O)CC4)ccc2Cl)cc1CNCc1ccccc1` , pIC50 observed: 6.85

Given item CS(=O)(=O)N1CCc2c(c(-c3ccc(Cl)c(CCc4ccc(Cl)cc4)c3)nn2CC(O)CN2CCC3(CCNC3=O)CC2)C1 (centres unmarked) , the value recorded as its pIC50 is 7.10

Briefly, pIC50 measured for `CS(=O)(=O)N1CCc2c(c(-c3ccc(Cl)c(CCc4ccc5c(c4)CNCC5)c3)nn2CCCN2CCCCC2)C1` : 7.05

# compound `NC(=O)N1CCc2c(c(-c3ccc(Cl)c(C#Cc4ccc(C(=O)NCc5ccc(Cl)cc5)cc4)c3)nn2CCCN2CCSCC2)C1` ; its pIC50 = 6.92

---

biological target: Recombinant human cathepsin S (CatS) (Homo sapiens, UniProt P25774); experiment: Recombinant human cathepsin S (CatS) inhibition assay, fluorogenic substrate Z-Valine-Valine-Arginine-AMC;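 note: Baculovirus-expressed CatS in pH 5.0 sodium acetate buffer with DTT and NaCl, fluorescence read each minute over 20 min, inhibition derived from rate slope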
Sequence (P25774 115-331): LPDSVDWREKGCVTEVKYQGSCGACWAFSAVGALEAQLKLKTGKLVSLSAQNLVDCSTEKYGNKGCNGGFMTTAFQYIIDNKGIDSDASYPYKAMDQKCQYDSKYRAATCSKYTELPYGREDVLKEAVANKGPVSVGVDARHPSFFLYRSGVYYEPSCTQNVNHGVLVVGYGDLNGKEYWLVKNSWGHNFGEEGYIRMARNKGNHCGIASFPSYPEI
pIC50: −log10 of the molar value.
Hi all, reminder that labels come from pIC50, split as A (below 6), B (6 to below 7), C (7 or more)

stdin: Note: place this compound into its band. Item: `COC(=O)Cc1ccc(C#Cc2cc(-c3nn(CCCN4CCOCC4)c4c3CN(S(C)(=O)=O)CC4)ccc2Cl)cc1`
stdout: B

stdin: Which bin should I file `CC(C)(C)OC(=O)N1CCC(C2CCN(C[C@H](O)Cn3nc(-c4ccc(Cl)c(CCc5ccc(Cl)cc5)c4)c4c3CCN(C(N)=O)C4)CC2)CC1` under?
stdout: C

stdin: Class? Entry: `NC(=O)N1CCc2c(c(-c3ccc(Cl)c(CCc4ccc(Cl)cc4)c3)nn2C[C@@H](O)CN2CCC(C3CCNCC3)CC2)C1`
stdout: C

stdin: Categorize the following entry: `C[C@@H]1COCCN1CCCn1nc(-c2ccc(Cl)c(C#Cc3ccc(CNCc4ccc(Cl)cc4)cc3)c2)c2c1CCN(S(C)(=O)=O)C2`
stdout: B

stdin: Looking at `CS(=O)(=O)N1CCc2c(c(-c3ccc(Cl)c(C#Cc4ccc(CNCc5ccc(Cl)cc5)c(F)c4)c3)nn2CCCN2CCOCC2)C1` , which class would you pick?
stdout: B

stdin: Which pIC50 category applies to `CC(=O)NC1CCN(CCCn2nc(-c3ccc(Cl)c(C#Cc4ccc(CNCc5ccc(Cl)cc5)cc4)c3)c3c2CCNC3)CC1` here?
stdout: B

stdin: Sort `CS(=O)(=O)N1CCc2c(c(-c3ccc(Cl)c(C#Cc4ccc(Oc5ccccc5)cc4)c3)nn2CCCN2CCOCC2)C1` into one of the categories.
stdout: A

stdin: Quick check: band for `CS(=O)(=O)N1CCc2c(c(-c3ccc(Cl)c(C#Cc4ccc(CNC(=O)c5ccccc5)cc4)c3)nn2CCCN2CCOCC2)C1`
stdout: B

stdin: Just checking, what class would you give `CS(=O)(=O)N1CCc2c(c(-c3ccc(Cl)c(C#Cc4ccc5c(c4)CN[C@H](C(=O)O)C5)c3)nn2CCCN2CCOCC2)C1` here?
stdout: C

stdin: Which category fits this record: `CCN(CC)CC#Cc1cc(-c2nn(CCCN3CCOCC3)c3c2CN(S(C)(=O)=O)CC3)ccc1Cl`
stdout: A

stdin: Band for `CN(C)CCCc1cc(-c2nn(CCCN3CCC(N4CCCC4=O)CC3)c3c2CN(S(C)(=O)=O)CC3)ccc1Cl` ?
stdout: A

The measurements presented in this section are drawn from patent US20080200454A1.
